# logP listing for each entry below
Would you mind answering with just the numeric figure?

> print(dat)
                                   molecule  reported.property  measured
1    Clc1cc2c(cc1Cl)Oc1c(cc(Cl)c(Cl)c1Cl)O2               logP      6.64
2  Clc1cc(Cl)c2c(c1)Oc1c(cc(Cl)c(Cl)c1Cl)O2               logP      6.53
3  C=CCC1CN(C)CCC1(OC(=O)CC)c1ccccc1 (stereo unspecified)               logP      2.97
4  CC(C)N(C=Nc1ccn(C2CC(O)C(CO)O2)c(=O)n1)C(C)C (stereo unspecified)               logP      0.17

[in] Using the record for CCCCOc1cccc(NC(=O)OCCN2CCOCC2)c1 , report its logP.
[out] 3.62

[in] Using the record for C=CCn1cnc2c(=O)[nH]c(Nc3ccccc3)nc21 , report its logP.
[out] 1.75

[in] Using the record for CC(C)(C)NC(=O)C1CN(C(=O)OCc2ccccc2)CCN1CC(O)CC(Cc1ccccc1)C(=O)NC1c2ccccc2CC1O (stereo unspecified) , report its logP.
[out] 4.67
